assay: Phase 1 single ascending dose (SAD) pharmacokinetics in healthy volunteers; assay type: in vivo, human; conditions: male, human, plasma, oral, 30 mg, SAD 30 mg fasted, n = 6; geometric mean; read-out: AUC
value kind: AUC (µg·h/mL)
The reply should contain only the number, in µg·h/mL.

// AUC lookup, compound = CC(O)c1ccc(CCOc2ccc(CC3SC(=O)NC3=O)cc2)nc1 (stereo not shown) , result: 44.2

* * *

test: Phase 1 multiple ascending dose (MAD) pharmacokinetics with CSF collection in healthy volunteers; format: in vivo, human; conditions: male, human, plasma, oral, 135 mg, 135 mg daily, fed, Day 1; read-out: Tmax, Observed
value kind: Tmax (h)
Use h as the unit, but write only the number.

// field: Tmax; key: CC(O)c1ccc(CCOc2ccc(CC3SC(=O)NC3=O)cc2)nc1 (stereo not shown) ; value = 3

* * *

assay: Phase 1 single ascending dose (SAD) pharmacokinetics in healthy volunteers; type: in vivo, human; conditions: male, human, plasma, oral, 90 mg, SAD 90 mg Fasted; NCA estimate; per kg body weight; read-out: Vss
value kind: Vd (L/kg)
Write it as a number; the unit L/kg goes unstated.

Quick note, Vd for CC(O)c1ccc(CCOc2ccc(CC3SC(=O)NC3=O)cc2)nc1 (stereo not shown) landed at 0.31

* * *

assay: Phase 1 multiple ascending dose (MAD) pharmacokinetics with CSF collection in healthy volunteers; type: in vivo, human; conditions: male, human, plasma, oral, 270 mg, 270 mg daily, fed, Day 1; read-out: Cmax, Observed
value kind: Cmax (ng/mL)
Your answer should be a plain number; it is taken to be in ng/mL.

Value of Cmax reported for the compound CC(O)c1ccc(CCOc2ccc(CC3SC(=O)NC3=O)cc2)nc1 (stereo not shown) is 10000

* * *

test: Phase 1 single ascending dose (SAD) pharmacokinetics in healthy volunteers; assay type: in vivo, human; conditions: male, human, plasma, oral, PBPK model input; estimated from phase 1 SAD data; read-out: Vss
value kind: Vd (L/kg)
Only the number, expressed in L/kg, is required.

Quick note, Vd for CC(O)c1ccc(CCOc2ccc(CC3SC(=O)NC3=O)cc2)nc1 (stereo not shown) [Leriglitazone] landed at 0.29

* * *

experiment: PBPK model input parameters: blood and plasma binding; assay type: in vitro ADME, human; settings: human, plasma
value kind: fraction unbound

Data point: CC(O)c1ccc(CCOc2ccc(CC3SC(=O)NC3=O)cc2)nc1 (stereo not shown) ; fraction unbound = 0.04

* * *

experiment: Phase 1 single ascending dose (SAD) pharmacokinetics in healthy volunteers; assay type: in vivo, human; settings: male, human, plasma, oral, 90 mg, single dose 90 mg Fed; read-out: AUC, Observed
value kind: AUC (µg·h/mL)
A number alone suffices; assume µg·h/mL.

The compound CC(O)c1ccc(CCOc2ccc(CC3SC(=O)NC3=O)cc2)nc1 (stereo not shown) showed AUC equal to 121

* * *

assay: Single dose neuro-pk study in rats; assay type: in vivo; conditions: plasma; rat, 17 mg/kg single dose; read-out: Total plasma AUC
value kind: AUC (µg·h/mL)
Response body: numeric value in µg·h/mL, unit text excluded.

AUC recorded for this compound, CC(O)c1ccc(CCOc2ccc(CC3SC(=O)NC3=O)cc2)nc1 (stereo not shown) [Leriglitazone] , is 102

* * *

experiment: Phase 1 single ascending dose (SAD) pharmacokinetics in healthy volunteers; type: in vivo, human; details: male, human, plasma, oral, 270 mg, SAD 270 mg fed, n = 5; geometric mean; read-out: AUC
value kind: AUC (µg·h/mL)
Supply the numeric figure in µg·h/mL, leaving out any unit text.

AUC recorded for this molecule, CC(O)c1ccc(CCOc2ccc(CC3SC(=O)NC3=O)cc2)nc1 (centres unmarked) , is 368

More entries:
Reported AUC for CC(=O)c1ccc(CCOc2ccc(CC3SC(=O)NC3=O)cc2)nc1 (centres unmarked) was 159
